Provide the recorded RFP signal change for the entries that follow.
test: GFP drop in mixed WT/humanized-ribosome E. coli culture – GFP/RFP fluorescence, OD600, single point, bacterial rRNA inhibitor project, primary screen (AID 720706); conditions: E. coli WT GFP vs humanized-ribosome RFP mutants, 24 h; measured here: RFP humanized mutant strains, DMSO median 0, no signal -100, concentration not given here
In all, about 350,000 compounds went through this assay and about 5,500 (1.6%) were called active. Only a selection was taken, and actives are over-represented in it overall.
Give bare numbers, in %.

Answered examples (4):
>>> endpoint_result("COc1ccc(OC)c(NC(=O)CSc2nc(-c3ccccc3)cc(=O)[nH]2)c1")
-1.33
>>> endpoint_result("CC(=O)NC(c1ccccc1)c1nc(-c2cccc(C(C)C)c2)cs1 (centres undefined)")
4.32
>>> endpoint_result("COc1ccc2c3c([nH]c2c1)[C@@H](CO)N(Cc1ccccc1OC)CC31CCN(C)CC1")
0.881
>>> endpoint_result("CCN(CC(=O)NCc1ccc(F)cc1)S(=O)(=O)c1ccc(Cl)s1")
-2.95

Here are 4 compounds. What values of RFP signal change were reported for them?
1. C[C@H](CO)N1C[C@H](C)[C@H](CN(C)CC2CCCCC2)Oc2ccc(NC(=O)CCCCCC(=O)Nc3ccccc3N)cc2C1=O
2. CCC(=O)N1CCC2(CC1)CN(Cc1ccc(Cl)cc1)[C@@H](CO)c1[nH]c3cc(OC)ccc3c12
3. C[C@H](CO)N1C[C@H](C)[C@@H](CN(C)S(=O)(=O)c2ccc(Cl)cc2)Oc2ccc(NS(=O)(=O)c3cccs3)cc2CC1=O
4. O=C(CCN1CCCCC1)NCC[C@@H]1CC[C@H](NS(=O)(=O)c2cccc(Cl)c2)[C@H](CO)O1

[2.33, 4.57, 2.4, 1.99]

Note down RFP signal change recorded for "C[C@H](CO)N1C[C@H](C)[C@H](CN(C)C(=O)C2CCOCC2)Oc2ncc(C#Cc3ccccc3F)cc2C1=O" -0.455

====

Task for the reader: assign each of the following compounds its reported OD600 change.
assay: GFP drop in mixed WT/humanized-ribosome E. coli culture – GFP/RFP fluorescence, OD600, single point, bacterial rRNA inhibitor project, primary screen (AID 720706); settings: E. coli WT GFP vs humanized-ribosome RFP mutants, 24 h; measured here: OD600 growth, DMSO median 0, no signal -100
Out of some 350,000 compounds screened, about 5,500 (1.6%) were called active. This is one part of a sample in which actives are shown more often than they occur.
Numbers only, in %.

Example entries and their recorded answers appear below.
>>> endpoint_result("Cc1[nH]c2ccc(C(=O)N3CCN(C)CC3)cc2c1C")
11
>>> endpoint_result("CCOc1cc(C=NNC(=O)CCCC(=O)NN=Cc2ccc(O)c(OCC)c2)ccc1O")
-0.6

Answer for every listed entry: what is its OD600 change? The entries follow.
1. CS(=O)(=O)N(CC(=O)N/N=C/c1ccccn1)c1ccc(Oc2ccccc2)cc1
2. NS(=O)(=O)c1cccc(NC(=O)CSc2nc3ccccc3n2-c2ccccc2)c1
3. O=C(CCCO)N/N=C/c1cc(Br)ccc1O
4. CCOc1ccccc1N1CCN(C(=O)c2ccc3[nH]c(C)c(C)c3c2)CC1
5. COc1ccc(CCNC(=O)CN(c2ccccc2)S(C)(=O)=O)cc1
6. O=C(CCc1ccc(O)cc1)NN=Cc1cc(Br)ccc1O
7. O=C(COc1ccc(Cl)cc1Cl)N/N=C/c1ccccn1

1. -12.1
2. -4.95
3. 11.6
4. -17.6
5. 11.8
6. -33.3
7. -28.8

Quick one: give me OD600 change for each item below, same order please.
1. S=C(NCc1ccco1)Nc1ccc2c(c1)OCCO2
2. COc1cc(NC(=S)NCc2ccco2)c(OC)cc1Cl

1. 8.22
2. 2.73
